- experiment.notes: NCI Yeast Anticancer Drug Screen. Data for the rad50 strain (AID 155);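 also: 0% = growth of vehicle-only cultures of the same strain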
- condition: S. cerevisiae rad50 strain growth inhibition; at 50.0 µM; hits give high values
About 79,000 compounds went through this panel and 15% of them were active in at least one assay; those are over-represented in the sample as a whole.
# Lookup of reported growth inhibition keyed by entry
The reply should be a number in %, with the unit left off.

- compound: "N#CC(CC(=O)c1ccccc1)c1ccccc1 (configuration not stated)"
  growth inhibition / %: -10.3
- compound: "O=C1OC(=O)C2C3C=CC(C3)C12 (configuration not stated)"
  growth inhibition / %: 17.2
- compound: "O=C(NN1C(=O)C(Cl)C1c1ccc([N+](=O)[O-])cc1)c1ccccc1O (configuration not stated)"
  growth inhibition / %: -16.2
- compound: "ClC(Cl)(Cl)C(Cl)(Cl)C(Cl)(Cl)Cl"
  growth inhibition / %: 42.1
- compound: "Cc1c2oc3c(C)ccc(C(=O)NCCN4CCN(c5ccccc5)CC4)c3nc-2c(C(=O)NCCN2CCN(c3ccccc3)CC2)c(N)c1=O"
  growth inhibition / %: -4.7

Sure, the documented growth inhibition for `O=C(NCCc1c[nH]c2ccccc12)C1CC1` is -40

Sure, the documented growth inhibition for O=C1CC2CC1C1C(=O)OC(=O)C21 (configuration not stated) is -6.8

Sure, the documented growth inhibition for `Cc1ccc(N(CN2C(=O)CCC2=O)CS(=O)(=O)c2ccc(C)cc2)cc1` is -1.85

Sure, the documented growth inhibition for `Cc1cccc2sc(=S)[nH]c12` is 35

Sure, the documented growth inhibition for `O=C(O)CCS.[Cu+2]` is -11.8

Sure, the documented growth inhibition for `N#CCN(CCc1ccccc1)CCc1ccccc1` is 8.35

Sure, the documented growth inhibition for `O=C(O)CCC(=O)Nc1cc([N+](=O)[O-])ccc1OCc1ccccc1` is 3.75

* * *

- experiment.notes: NCI Yeast Anticancer Drug Screen. Data for the mec2-1 strain (AID 157)
- condition: S. cerevisiae mec2-1 strain, at 50.0 µM, hits give high values
The panel holds about 79,000 compounds, 15% with a hit somewhere; the sample as a whole holds those more often.
measure: growth inhibition (%)
The reply should be a number in %, with the unit left off.

Example cases with answers are listed next.
- compound: "CCCCC(=O)N/N=C\\c1cc(Cl)ccc1[N+](=O)[O-]"
  growth inhibition [%]: 1.6
- compound: "C[C@@H](O)c1nc(C(N)=O)cs1"
  growth inhibition [%]: 14.2
- compound: "CCOC(=O)/C(=C/c1cn(C(C)=O)c2ccccc12)P(=O)(OC)OC"
  growth inhibition [%]: -4.1
- compound: "OC1OCc2cc3ccccc3cc21 (stereo not given)"
  growth inhibition [%]: -0.95
- compound: "CSc1c(C#N)c2c(Cl)ncnc2n1C(C)=O"
  growth inhibition [%]: 14.3
- compound: "CCOC(=O)C(Br)(C(=O)OCC)C(C)C"
  growth inhibition [%]: -0.8
- compound: "Nc1cccc(CC(NC(=O)c2ccccc2)C(=O)O)c1 (stereo not given)"
  growth inhibition [%]: 2.1
- compound: "Cc1cc2c(C(C)C)c(O)c(O)c(C=Nc3ccc(N=Nc4ccccc4)cc3)c2c(O)c1-c1c(C)cc2c(C(C)C)c(O)c(O)c(C=Nc3ccc(N=Nc4ccccc4)cc3)c2c1O"
  growth inhibition [%]: 0.4
- compound: "CN(CC(=O)O)Cc1ccccc1"
  growth inhibition [%]: 19.4
- compound: "Cc1cc(C)n(/N=C/c2ccccc2[N+](=O)[O-])c(=O)c1C#N"
  growth inhibition [%]: 9.4

Sure, the documented growth inhibition for CCOC(=O)C1CC1C#N (stereo not given) is -11.9

* * *

# Lookup of reported growth inhibition keyed by entry
- experiment.notes: NCI Yeast Anticancer Drug Screen. Data for the sgs1 mgt1 strain (AID 161);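 also: 0% = growth of cultures given vehicle only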
- condition: S. cerevisiae sgs1 mgt1 strain, at 50.0 µM, hits give high values
The panel holds about 79,000 compounds, 15% with a hit somewhere; the sample as a whole holds those more often.
The reply should be a number in %, with the unit left off.

- compound: "NCCSC(O)(C(F)(F)F)C(F)(F)F"
  measure: "growth inhibition"
  unit.info: "%"
  result.value: 3.05

Sure, the documented growth inhibition for Cc1ccccc1N1CC2CC3C=CC2(C1)O3 (centres undefined) is 16.8

Sure, the documented growth inhibition for `Nc1c(Cl)ncnc1NCCCCCCCCCCCCNc1ncnc(Cl)c1N` is 26.1

Sure, the documented growth inhibition for `Cc1cc2c(nn1)CCc1c-2no[n+]1[O-]` is -10.4

Sure, the documented growth inhibition for `COc1ccc2c(c1)C(N)=C(c1ccccc1OC)C2=O` is 4.95

Sure, the documented growth inhibition for `O=NNc1ccnc(-c2cc(NN=O)ccn2)c1` is 6.3

Sure, the documented growth inhibition for `Cc1ccc(-n2nc3c(c(C#N)c2=O)-c2ccccc2C3=O)cc1` is -31.8

Sure, the documented growth inhibition for `Cc1cccc(C)c1NC(=O)Nc1cccc(C#N)c1` is 7.35

Sure, the documented growth inhibition for `O=C1c2ccccc2C(=O)N1n1c(Cc2ccccc2)n[nH]c1=O` is -41.5

Sure, the documented growth inhibition for `Cc1nc2ccccc2n1C(=O)c1c(F)c(F)c(F)c(F)c1F` is -28.6

Sure, the documented growth inhibition for `Cc1cccc(NC(=S)N(CCC#N)C2CCCCC2)c1` is 14.8

Sure, the documented growth inhibition for `NC(=O)C(=O)c1ccccc1` is -2

Sure, the documented growth inhibition for CCC(O)(c1ccc(O)cc1)C(O)(CC)c1ccc(O)cc1 (centres undefined) is -0.2

Sure, the documented growth inhibition for CN(C)C(=O)C(NCCO)c1ccccc1 (centres undefined) is -11.2

Sure, the documented growth inhibition for `N#Cc1[nH]c(=S)[nH]c1N` is 2.6

Sure, the documented growth inhibition for CC#CCCC1CCCCNC1=O (centres undefined) is 27.1

* * *

- experiment.notes: NCI Yeast Anticancer Drug Screen. Data for the cln2 rad14 strain (AID 165);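 also: 0% = growth equal to vehicle treated cultures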
- condition: S. cerevisiae cln2 rad14 strain, at 50.0 µM, hits give high values
Compounds without any hit were thinned out: in the full panel of roughly 79,000, 15% have a hit.
measure: growth inhibition (%)
The reply should be a number in %, with the unit left off.

Example cases with answers are listed next.
- molecule: "O=c1c(-c2ccc(O)cc2)coc2cc(O)cc(O)c12"
  result.value: 3.65
- molecule: "CC(=O)NC(CCCNC(=O)N(C)N=O)C(=O)NCc1ccccc1 (stereo unspecified)"
  result.value: 6.9
- molecule: "COc1ccc(C2OC23CC(C)(C)c2ccccc2C3=O)cc1 (stereo unspecified)"
  result.value: -11
- molecule: "Cc1cc(=O)n2cn[nH]c2n1"
  result.value: 5.25
- molecule: "CC(O)C(=O)OCCOc1ccccc1 (stereo unspecified)"
  result.value: 5.5

As a next step, examine the molecule that follows.
Sure, the documented growth inhibition for `Cc1ccc(N/N=c2\c3nc4ccccc4nc2n(-c2ccccc2C)c(=S)n3-c2ccc(C)cc2)cc1` is -18.7

* * *

# Lookup of reported growth inhibition keyed by entry
- experiment.notes: NCI Yeast Anticancer Drug Screen. Data for the cln2 rad14 strain (AID 165);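 also: 0% = growth equal to vehicle treated cultures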
- condition: S. cerevisiae cln2 rad14 strain, at 50.0 µM, hits give high values
This is part of a sample that, as a whole, favours compounds with a hit. Of some 79,000 tested, about 15% had one in any assay.
The reply should be a number in %, with the unit left off.

- molecule: "COc1ccc(OC)c(NC(=O)C(=O)C(C(=O)c2ccccc2F)C2OC(=O)c3ccccc32)c1 (stereo unspecified)"
  measure: "growth inhibition"
  result.value: -15.8
- molecule: "N#CCCOC(=O)Nc1cccc(Cl)c1"
  measure: "growth inhibition"
  result.value: 7.3

Sure, the documented growth inhibition for `c1ccc(CCN2CCCCCCCC2)nc1` is -23.2

Sure, the documented growth inhibition for `CC1(C)N=C(Oc2ccccc2)n2nccc2N1` is 2.55

Sure, the documented growth inhibition for `N[C@@H](CO)[C@@H](O)c1ccc([N+](=O)[O-])cc1` is -38.5

Sure, the documented growth inhibition for Cc1cn(C2CC(N)C(C(=O)NCC(=O)O)O2)c(=O)[nH]c1=O (stereo unspecified) is 2.65

Sure, the documented growth inhibition for `Brc1ccc(CN(Cc2ccccc2)Cc2ccccc2)cc1` is -10.4

Sure, the documented growth inhibition for `CCN(CC)CCC(=O)c1ccc(Oc2ccc(Cl)cc2)cc1` is 80.2

Sure, the documented growth inhibition for `Cc1cccc(N=Cc2ccc(N(CCC#N)S(=O)(=O)c3ccccc3)cc2C)c1` is -8.35

Sure, the documented growth inhibition for CCC(CC)C(=O)OCCCCC1CCCO1 (stereo unspecified) is -16.6

Sure, the documented growth inhibition for `CN(/C=C1\CCCCC1=O)c1ccccc1` is -14.4

* * *

# Lookup of reported growth inhibition keyed by entry
- experiment.notes: NCI Yeast Anticancer Drug Screen. Data for the sgs1 mgt1 strain (AID 161);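 also: 0% = growth of cultures given vehicle only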
- condition: S. cerevisiae sgs1 mgt1 strain, at 50.0 µM, hits give high values
Compounds without any hit were thinned out: in the full panel of roughly 79,000, 15% have a hit.
The reply should be a number in %, with the unit left off.

Example cases with answers are listed next.
- molecule: "c1ccc2c(c1)ccc1c3ccccc3ccc21"
  growth inhibition [%]: 13.6
- molecule: "Clc1ccc(C2N3CCCCC3[C@@H]3c4[nH]c5ccccc5c4CCN23)cc1 (stereo partly drawn)"
  growth inhibition [%]: -4.7
- molecule: "C[N+](C)(C)CC(=O)N/N=C(/C=C/c1ccccc1)CC1OC(=O)c2ccccc21 (stereo not drawn)"
  growth inhibition [%]: -3.5
- molecule: "COc1ccccc1OCC(COC(=O)Nc1ccccc1)OC(=O)Nc1ccccc1 (stereo not drawn)"
  growth inhibition [%]: -30.4
- molecule: "NCC(N)=O"
  growth inhibition [%]: -29

Sure, the documented growth inhibition for `CCOC(=O)/N=[N+](\[O-])c1ccccc1` is 57.6

Sure, the documented growth inhibition for `CCCCS(=O)(=O)N1CCCC1` is 1.9

Sure, the documented growth inhibition for `Cc1ccc(NC(=O)Oc2ccc(Cl)cc2Cl)cc1NC(=O)Oc1ccc(Cl)cc1Cl` is -13.3

Sure, the documented growth inhibition for COC(=O)C1(C)CCCC2(C)C1CCC13OC1C1(C(C)C)OC1CC23 (stereo not drawn) is 11.1

Sure, the documented growth inhibition for CCCCCC(=O)OCC(Br)CBr (stereo not drawn) is 22.5

Sure, the documented growth inhibition for `CC1(C)CC(=O)C2=C(C1)NC1=C(C2)C(=O)CC(C)(C)C1` is -22.4

Sure, the documented growth inhibition for `COC(=O)C(=[N+]=[N-])C(=O)c1ccc([N+](=O)[O-])cc1` is 40.1

Sure, the documented growth inhibition for COC1(C)CNCC(C)(C)NC(=O)C(C)(OC)CNCC(C)(C)NC1=O (stereo not drawn) is -20.7
